test: Solubility of bilastine vs. HPβCD concentration and pH; assay type: physicochemical; settings: aqueous HPβCD solution, pH 4.6, aqueous with cosolvent or surfactant or cyclodextrin, thermodynamic from solid; Entry 2: HPβCD 20 % w/v, final pH 4.60
readout type: solubility at 48 h (mg/mL)

molecular string | readout unit | test value
CCOCCn1c(C2CCN(CCc3ccc(C(C)(C)C(=O)O)cc3)CC2)nc2ccccc21 | mg/mL | 35.1

---

test: Solubility of bilastine vs. HPβCD concentration and pH; format: physicochemical; details: aqueous HPβCD solution, aqueous with cosolvent or surfactant or cyclodextrin, thermodynamic from solid; Entry 5: HPβCD 30 % w/v, final pH 5.13

molecular string | solubility at 48 h [mg/mL]
CCOCCn1c(C2CCN(CCc3ccc(C(C)(C)C(=O)O)cc3)CC2)nc2ccccc21 | 27.2
